# tgt: T1, huCD33-G69-Fc recombinant protein (human, UniProt P20138 18-259)
# T1 construct: extracellular domain; also called CD33 R69G
# procedure text: BLI;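 also: scFvs from periplasmic extracts captured on biosensors via anti-V5 antibody, exposed to recombinant huCD33 variants for 2 min, 5 min dissociation, scored as binding, no binding or ambiguous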
measured endpoint: binding result

Example binders with recorded binding result:
{"binder": "Polypeptide No. 33 (scFv, V domains shown, scFv) VH: QVQLVQSGAEVKKPGASVKVSCKASGYTFTSYYMHWVRQAPGQGLEWMGIIDPSGGSTNYAQKFQGRVTMTRDTSTSTVYMELSSLRSEDTAVYYCARDYYGSGSYYGLDYWGRGTLVTVSS VL: DIQMTQSPSSLSASVGDRVTITCRASQGISNNLNWYQQKPGKAPKLLIYDASNLETGVPSRFSGSGSGTDFTLTISSLQPEDFATYYCQQANSFPLTFGPGTKVDIKR", "measured endpoint": "binding result", "reading": "binds"}
{"binder": "Polypeptide No. 4 (scFv, V domains shown, scFv) VH: QVQLVQSGAEVKKPGASVKVSCKASGGTFSSYAISWVRQAPGQGLEWMGWINPNSGNTGYAQKFQGRVTMTRDTSTSTVYMELSSLRSEDTAVYYCAREHGDMDVWGQGTTVTVSS VL: EIVMTQSPATLSVSPGERATLSCRASQNINSDLAWYQQKPGQAPRLLIYGASTRATGIPARFSGSGSGTEFTLTISSLQSEDFAVYYCQQYDSLPFTFGPGTKVDIKR", "measured endpoint": "binding result", "reading": "no binding"}
{"binder": "Polypeptide No. 12 (scFv, V domains shown, scFv) VH: EVQLLESGGGLVQPGGSLRLSCAASGFTFSSHWMSWVRQAPGKGLEWVSAISGSGGSTYYADSVKGRFTISRDNSKNTLYLQMNSLRAEDTAVYYCARDDNSGSQADWGQGTLVTVSS VL: DIQMTQSPSSLSASVGDRVTITCQASQDIDNYLNWYQQKPGKAPKLLIYDASNLETGVPSRFSGSGSGTDFTLTISSLQPEDFATYYCQQSYSTPLTFGGGTKLEIKR", "measured endpoint": "binding result", "reading": "no binding"}
{"binder": "Polypeptide No. 11 (scFv, V domains shown, scFv) VH: QVQLVQSGAEVKKPGASVKVSCKASGDTFTNHYMHWVRQAPGQGLEWMGWINPNSGGTNYAQKFQGRVTMTRDTSTSTVYMELSSLRSEDTAVYYCARDLVPAAVGGYFDYWGQGTLVTVSS VL: DIQMTQSPSSLSASVGDRVTITCRASQSLGSWLAWYQQKPGKAPKLLIYAASSLQSGVPSRFSGSGSGTDFTLTISSLQPEDFATYYCQQANSFPLTFGQGTKVEIKR", "measured endpoint": "binding result", "reading": "no binding"}
{"binder": "Polypeptide No. 1 (scFv, V domains shown, scFv) VH: QVQLVQSGAEVKKPGASVKVSCKASGYSFTGYYIHWVRQAPGQGLEWMGWINPNSGGTNYAQKFQGRVTMTRDTSTSTVYMELSSLRSEDTAVYYCARDQWDGYNSGYFDYWGQGTLVTVSS VL: DIQMTQSPSSLSASVGDRVTITCRASQTINDWLAWYQQKPGKAPKLLIYSASTLHSGVPSRFSGSGSGTDFTLTISSLQPEDFATYYCQQAYSTPWTFGQGTKVEIKR", "measured endpoint": "binding result", "reading": "no binding"}

Which binding result value is on record for Polypeptide No. 32 (scFv, V domains shown, scFv) VH: EVQLLESGGGLVQPGGSLRLSCAASGFTFSSYGMHWVRQAPGKGLEWVSSISGSGDTTYYADSVKGRFTISRDNSKNTLYLQMNSLRAEDTAVYYCARDNPYGDYGGSFDYWGQGTLVTVSS VL: EIVMTQSPATLSVSPGERATLSCRASQSVSSSYLAWYQQKPGQAPRLLIYATSTRATGIPARFSGSGSGTEFTLTISSLQSEDFAVYYCQQYGSLPLTFGQGTKVEIKR ?
binds

For the binder Polypeptide No. 40 (scFv, V domains shown, scFv) VH: QVQLVQSGAEVKKPGASVKVSCKASGYTFTDYHMHWVRQAPGQGLEWMGWMSPNSGNTGYAQNFQGRVTMTRDTSTSTVYMELSSLRSEDTAVYYCARADYYGSDYVKFDYWGQGTLVTVSS VL: DIQMTQSPSSLSASVGDRVTITCRVSQGISSYLNWYQQKPGKAPKLLIYEASTLESGVPSRFSGSGSGTDFTLTISSLQPEDFATYYCQQGYSTPPTFGQGTKVEIKR , what binding result is on record?
binds

What value of binding result has been recorded for this entry: Polypeptide No. 39 (scFv, V domains shown, scFv) VH: EVQLLESGGGLVQPGGSLRLSCAASGFTFRNYGMGWVRQAPGKGLEWVSAISGSGGSTYYADSVKGRFTISRDNSKNTLYLQMNSLRAEDTAVYYCARVKFYGMDVWGQGTTVTVSS VL: DIQMTQSPSSLSASVGDRVTITCRASQGISNDLAWYQQKPGKAPKLLIYGASNLETGVPSRFSGSGSGTDFTLTISSLQPEDFATYYCQQANSFPFTFGPGTKVDIKR
binds

Find the recorded binding result belonging to Polypeptide No. 35 (scFv, V domains shown, scFv) VH: QVQLVQSGAEVKKPGASVKVSCKASGYTFTDYYMHWVRQAPGQGLEWMGIINPSGGSTRYAQKFQGRVTMTRDTSTSTVYMELSSLRSEDTAVYYCARVDGRRWLRSDYWGQGTLVTVSS VL: DIQMTQSPSSLSASVGDRVTITCRASQGIRNDLAWYQQKPGKAPKLLIYAASTLQNGVPSRFSGSGSGTDFTLTISSLQPEDFATYYCQQSYSTPWTFGQGTKVEIKR and report it.
binds

# query: binding result of entry Polypeptide No. 27 (scFv, V domains shown, scFv) VH: QVQLVQSGAEVKKPGASVKVSCKASGYTLTGYYMHWVRQAPGQGLEWMGWMNPSSGNTGYAQQFQGRVTMTRDTSTSTVYMELSSLRSEDTAVYYCARASSDRYYYDGVWYFDLWGRGTLVTVSS VL: DIQMTQSPSSLSASVGDRVTITCRASQDIRNNLGWYQQKPGKAPKLLIYGASSLQSGVPSRFSGSGSGTDFTLTISSLQPEDFATYYCQQTYSSPPTFGQGTKLEIKR
binds

The measured values listed here are drawn from patent US20240101668A1.
